Data provenance is patent US7598010B2.

# Assay procedure: Differential scanning calorimetry (DSC), glass transition point
# Format: physicochemical
# Run parameters: determined by DSC
Measured quantity: Glass Transition Point(Tg) (Degrees C.)

These solved cases illustrate the format of a correct answer.
1) c1ccc(N(c2ccc(-c3ccc(N(c4ccccc4)c4ccc5ccccc5c4)cc3)cc2)c2ccc3ccccc3c2)cc1 [Example5]
99.4
2) c1ccc(N(c2ccc(-c3ccc(N(c4ccccc4)c4ccc5ccccc5c4)cc3)cc2)c2ccc3ccccc3c2)cc1 [Example6]
99.4
3) Cc1ccc(N(c2ccccc2)c2ccc(-c3ccc(N(c4ccccc4)c4ccc(C)cc4)cc3)cc2)cc1
75.0

A = c1ccc(N(c2ccc(-c3ccc(N(c4ccccc4)c4cccc5ccccc45)cc3)cc2)c2cccc3ccccc23)cc1
B = Cc1cccc(N(c2ccccc2)c2ccc(-c3ccc(N(c4ccccc4)c4cccc(C)c4)cc3)cc2)c1
Compare A and B and name the one whose reported Glass Transition Point(Tg) is smaller. Write the label of whichever entry you select.
B

---

# Assay procedure: Determination of the solubility in organic solvents
# Type: physicochemical
# Run parameters: DMF, organic solvent or mixture, thermodynamic from solid, solvent DMF, 5 ml, added until saturation; read-out: Solubility (g/ml) DMF
Measured quantity: solubility (g/mL)
Field format: number, assumed g/mL, no unit text.

Assign solubility to the following record: `Cc1ccc(N(c2ccccc2)c2ccc(-c3ccc(N(c4ccccc4)c4ccc(C)cc4)cc3)cc2)cc1`
0.036

---

# Assay procedure: Determination of the solubility in organic solvents
# Type: physicochemical
# Run parameters: solvent DMF, 5 ml, added until saturation
Measured quantity: Solubility (g/ml) DMF (g/mL)

1) c1ccc(N(c2ccc(-c3ccc(N(c4ccccc4)c4ccc5ccccc5c4)cc3)cc2)c2ccc3ccccc3c2)cc1 [Comparative Example6]
0.033

I = Cc1ccc(N(c2ccccc2)c2ccc(-c3ccc(N(c4ccccc4)c4ccc(C)cc4)cc3)cc2)cc1
II = c1ccc(N(c2ccc(-c3ccc(N(c4ccccc4)c4cccc5ccccc45)cc3)cc2)c2cccc3ccccc23)cc1 [Example4]
III = c1ccc(N(c2ccc(-c3ccc(N(c4ccccc4)c4cccc5ccccc45)cc3)cc2)c2cccc3ccccc23)cc1 [Comparative Example4]
Please order the records by their reported Solubility (g/ml) DMF, lowest number first. // ordering of labels required in reply
III, II, I
(III: 0.001 g/mL, II: 0.007 g/mL, I: 0.060 g/mL)

A = c1ccc(N(c2ccc(-c3ccc(N(c4ccccc4)c4ccc5ccccc5c4)cc3)cc2)c2ccc3ccccc3c2)cc1 [Example5]
B = c1ccc(N(c2ccc(-c3ccc(N(c4ccccc4)c4ccc5ccccc5c4)cc3)cc2)c2ccc3ccccc3c2)cc1 [Comparative Example7]
// which entry reports the smaller Solubility (g/ml) DMF, A or B ? Respond with the label that goes with your answer.
B

---

# Assay procedure: Determination of the solubility in organic solvents
# Assay type: physicochemical
# Run parameters: dichloromethane, organic solvent or mixture, thermodynamic from solid, solvent dichloromethane, 5 ml, added until saturation; read-out: Solubility (g/ml) Dichloromethane
Measured quantity: solubility (g/mL)

P = Cc1ccc(N(c2ccccc2)c2ccc(-c3ccc(N(c4ccccc4)c4ccc(C)cc4)cc3)cc2)cc1 [Comparative Example2]
Q = c1ccc(N(c2ccc(-c3ccc(N(c4ccccc4)c4cccc5ccccc45)cc3)cc2)c2cccc3ccccc23)cc1 [Example4]
Between the two listed entries P and Q , which has its solubility at the higher number? Respond with the label that goes with your answer.
P

---

# Assay procedure: Determination of the solubility in organic solvents
# Assay type: physicochemical
# Run parameters: solvent chloroform, 5 ml, added until saturation
Measured quantity: Solubility (g/ml) Chloroform (g/mL)

Below, 2 molecules whose answers are already recorded.
1) c1ccc(N(c2ccc(-c3ccc(N(c4ccccc4)c4ccc5ccccc5c4)cc3)cc2)c2ccc3ccccc3c2)cc1 [Comparative Example7]
0.368
2) c1ccc(N(c2ccc(-c3ccc(N(c4ccccc4)c4ccc5ccccc5c4)cc3)cc2)c2ccc3ccccc3c2)cc1 [Comparative Example5]
0.395

a = Cc1ccc(N(c2ccccc2)c2ccc(-c3ccc(N(c4ccccc4)c4ccc(C)cc4)cc3)cc2)cc1
b = c1ccc(N(c2ccc(-c3ccc(N(c4ccccc4)c4ccc5ccccc5c4)cc3)cc2)c2ccc3ccccc3c2)cc1 [Comparative Example6]
c = c1ccc(N(c2ccc(-c3ccc(N(c4ccccc4)c4cccc5ccccc45)cc3)cc2)c2cccc3ccccc23)cc1
Ordering criterion: Solubility (g/ml) Chloroform; begin with the maximum. Output spec: a listing of the labels in the requested order.
a, b, c
(a: 0.892 g/mL, b: 0.452 g/mL, c: 0.024 g/mL)
